This section presents binders with their documented pEC50 values.
system_tested: T1, human CTLA4 expressed on Jurkat T cells (human, UniProt P16410 36-223)
T1 construct: whole, on cells; also called hCTLA4; cell surface-expressed hCTLA4
test_name: flow cytometry on Jurkat T cells expressing hCTLA4
pEC50: −log10 of the molar value.

binder	pEC50
anti-hCTLA4 antibody 5B2 (antibody, human IgG1, V domains shown) VH: QVQLVESGGGVVEPGRSLRLSCTASGFTFSSYGMHWVRQAPGKGLEWVAVIWYKSSEKDYADSAKGRFTISRDNSKNTLYLQMNSLRAEDTAVYYCARAGLLGYFDYWGQGTLVTVSS VL: EIVLTQSPGTLSLSPGERATLSCRASQSLSSYLAWYQQKPGQAPRLLIYGVSSRATGIPDRFSGSGSGTDFTLTISRLEPEDFAVYYCQQYGMYPFTFGPGTKVDIK	8.53
anti-hCTLA4 antibody 3G1 (antibody, human IgG1, V domains shown) VH: QVQLVESGGGVVEPGRSLRLSCTASGFTFSSYGMHWVRQAPGKGLEWVAVIWYKSSEKYYADSAKGRFTISRDNSKNTLYLQMNSLRAEDTAVYYCARGGLLGYFDYWGQGTLVTVSS VL: EIVLTQSPGTLSLSPGERATLSCRASQSINSYLAWYQQKPGQAPRPLIYGVSSRATGIPDRFSGSGSGTDFTLTISRLEPEDFAVYYCQQYGMYPFTFGPGTKVDIK	8.51
anti-hCTLA4 antibody 1E1 (antibody, human IgG1, V domains shown) VH: QVQLVESGGGVVEPGRSLRLSCAASGFTFSSYGMHWVRQAPGKGLEWVAVIWYNPSEKDYADSAKGRFTISRDNSKNTLYLQMNSLRAEDTAVYYCARAGLLGYFDYWGQGTLVTVSS VL: EIVLTQSPGTLSLSPGERATLSCRASQSISSYLAWYQQKPGQAPRPLIYGVSSRATGIPDRFSGSGSGTDFTLTISRLEPEDFAVYYCQQYGMSPFTFGPGTKVDIK	9.16
